The entries below are paired with their reported pIC50.
- measured.on: KRAS G13D (Homo sapiens, UniProt P01116+P62937, G13D)
- Sequence (P01116 1-169 isoform P01116-2 G13D limits assumed): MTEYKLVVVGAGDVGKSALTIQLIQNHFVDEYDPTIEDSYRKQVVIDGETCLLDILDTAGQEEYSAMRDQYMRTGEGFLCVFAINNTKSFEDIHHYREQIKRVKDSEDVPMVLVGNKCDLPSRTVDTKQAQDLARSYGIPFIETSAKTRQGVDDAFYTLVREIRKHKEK
- Sequence (P62937 whole entry): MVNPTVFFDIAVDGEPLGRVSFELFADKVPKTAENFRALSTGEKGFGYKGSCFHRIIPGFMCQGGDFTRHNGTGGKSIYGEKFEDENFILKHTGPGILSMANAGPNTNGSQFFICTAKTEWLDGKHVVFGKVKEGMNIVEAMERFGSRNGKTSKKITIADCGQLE
- test.method.notes: Disruption of BRAF RBD interaction with Ras (FRET / MOA assay, with Cyclophilin A)
- Format: biochemical
- condition.info: KRAS G13D; read-out: KRAS G13D FRET data IC50
pIC50: −log10 of the molar value.

C=CC(=O)N1CC[C@]2(C1)OCN(C(=O)N(C)[C@H](C(=O)N[C@H]1Cc3cccc(n3)-c3ccc4c(c3)c(c(-c3cccnc3[C@H](C)OC)n4CC)CC(C)(C)COC(=O)[C@@H]3CCCN(N3)C1=O)C(C)C)C2=O (atropisomer, axis not shown); 5.00 to 6.00
CCn1c(-c2cccnc2[C@H](C)OC)c2c3cc(ccc31)-c1csc(n1)C[C@H](NC(=O)[C@H](C(C)C)N(C)C(=O)N1CC(N3CCN(C)CC3)C1)C(=O)N1CCC[C@H](N1)C(=O)OCC(C)(C)C2; 6.00 to 7.00
CCn1c(-c2cccnc2[C@H](C)OC)c2c3cc(ccc31)-c1cc(O)cc(c1)C[C@H](NC(=O)[C@H](C(C)C)N(C)C(=O)C1(O)CC1)C(=O)N1CCC[C@H](N1)C(=O)OCC(C)(C)C2 (atropisomer, axis not shown); 6.00 to 7.00

Attention now shifts to the item below.
Item CCn1c(-c2cccnc2[C@H](C)OC)c2c3cc(ccc31)-c1cc(O)cc(c1)C[C@H](NC(=O)[C@H](C(C)C)N(C)C(=O)[C@@H]1CCN[C@@H]1c1ccccc1)C(=O)N1CCC[C@H](N1)C(=O)OCC(C)(C)C2 (atropisomer, axis not shown) has what recorded pIC50?
7.00 to 8.00
